# assay.target: NTD of NCR1 (Saccharomyces cerevisiae)
# Construct: residues 1–249, UniProt: Q12200; thrombin cleavage site (C); deca-histidine tag (C, cleaved yes); made in house; host or cells: Saccharomyces cerevisiae strain DSY-5
# Sequence (Q12200 20-249): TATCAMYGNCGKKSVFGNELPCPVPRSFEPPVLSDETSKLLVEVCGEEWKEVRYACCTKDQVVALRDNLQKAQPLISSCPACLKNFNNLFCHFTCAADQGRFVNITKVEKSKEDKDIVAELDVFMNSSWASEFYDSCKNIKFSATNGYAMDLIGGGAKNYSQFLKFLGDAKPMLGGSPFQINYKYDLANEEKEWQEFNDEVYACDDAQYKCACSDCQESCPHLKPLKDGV
# test.name: Competitive binding assays of edelfosine and NBD-Sph to the NTD
# condition: 1 μM NBD-Sph, 0.5 μM edelfosine, pH 7.5; read-out: apparent KD of NBD-Sph to the NTD
measurement.label: Kd

Consider the compound NC(CO)C(O)C=CCCCCCCCCCCCCCNc1ccc([N+](=O)[O-])c2nonc12 (stereo not shown) [NBD-Sph] and give its measured Kd.
0.16 µM

* * *

# assay.target: NTD of NCR1 (Saccharomyces cerevisiae)
# Construct: residues 1–249, UniProt: Q12200; thrombin cleavage site (C); deca-histidine tag (C, cleaved yes); made in house; host or cells: Saccharomyces cerevisiae strain DSY-5
# test.name: Competitive binding assays of edelfosine and NBD-Sph to the NTD
# condition: 1 μM NBD-Sph, 0.1 μM edelfosine, pH 7.5; read-out: apparent KD of NBD-Sph to the NTD
measurement.label: Kd
Number first, unit second: that is the form wanted.

What Kd value was documented for this compound, NC(CO)C(O)C=CCCCCCCCCCCCCCNc1ccc([N+](=O)[O-])c2nonc12 (stereo not shown) ?
120 nM

Where do the numbers come from? From paper PMC11512107.
